System: MS2 coat protein
assay.remarks: apparent KD of MS2 coat protein; designed switch direction (-1 OFF switch, 1 ON switch): 1; higher = weaker reporter binding
details: input ligand: FMN 200 uM
quantity: apparent KD of MS2 coat protein (nM)
Lab book: enter the figure in nM, no units written.

Consider the sequence shown here: UGACACACGGCAGGAUAUCGAUAGCAAAGCUAUCGAGAAGGGCCUCAUGUCGUGGAAACGUGACAUGAGGAUCACCCAUGUCGC [Omei SS(NG)1 Cv12] (Eterna round: R96, puzzle: Same State NG 1) What is its recorded apparent KD of MS2 coat protein?
72

And what about the sequence CCGGCCACACAACAAGGCCAACAUGAGGAUCACCCAUGUACACAGGAUAUCGGCAGCCAAGGCUCCGAGAAGGGUGGUUCAAUU [Beage] (Eterna round: R96, puzzle: Same State NG 3) ?
438

Would you kindly repeat that for GUUUUUAGUGCAGGAUAUGAUCAACAUGAGGAUCACCCAUGUGGCGUUGUGAGUAGGGAGAGAGAUCAGAAGGGCGUCUCCGCG [SS-NG2-LRO13] (Eterna round: R96, puzzle: Same State NG 2) ?
51.5

====

Tested on: MS2 coat protein
assay.remarks: apparent KD of MS2 coat protein; designed switch direction (-1 OFF switch, 1 ON switch): 1; higher = weaker reporter binding
details: input ligand: microRNA oligo, concentration not stated
Mark 1 for reported apparent KD of MS2 coat protein of 50 nM or greater; mark -1 for anything smaller.

In plain terms: is recorded apparent KD of MS2 coat protein at least 50 nM for CCACUCUGCGGAGGAUAUGGGCCUGCCCGGGAUAACGGGCCUAAUACAUGAGGAUCACCCAUGUCCCAGAAGGCCGCUAGAGCC [Xeusza] (Eterna round: R96, puzzle: Same State NG 2) ?
1

Entry to check: ACAUGAGGAUCACCCAUGUAACCAAGAGAGAGAGCACGGACGCAGGAUAUGCGGCGACGAGCGGAGCAGAAGGGCGCCUCAUAU [Alacarus NG 3 Attempt 1] (Eterna round: R96, puzzle: Same State NG 3)
1

Lookup GAGAGAUGGUUAGGAUAUUCGGUGAUAAUGAUAGAAGAAGGAACUGACAUGAGGAUCACCCAUGUGGGAAUAAUCCAGAGAGAG [Parity 20 - Jieux - Same State NG 1] (Eterna round: R96, puzzle: Same State NG 1)
1

Repeat with UGGCUCAGACUAGGAUAUAUGUGGUCACAUGAGGAUCACCCAUGUCUCGAGCUUCGGCUCGAGGCAUAGAAGGAGUCUGAGCCU [SSNG2/5-D3] (Eterna round: R96, puzzle: Same State NG 2)
-1

Similarly, AUUAUUUAUGCAGGAUAUGAUUAACAUGAGGAUCACCCAUGUGGUGUUGUGAGUAAGGAGAGUGAUCAGAAGGGCAUUUUUUUA [JMF's solution 56] (Eterna round: R96, puzzle: Same State NG 2) ?
1

====

Give apparent KD of K4 kissing-loop reporter for every item shown.
Tested on: K4 kissing-loop RNA reporter;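 note: bound reporter read as fluorescence of individual clusters on recovered sequencing chips by microscopy, with normalized cluster intensities fitted with a binding model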
assay.remarks: apparent KD of K4 kissing-loop reporter; higher = weaker reporter binding
details: Eterna round: R107; input ligand: theophylline 20 uM
Please reply with the bare figure in nM and do not write the unit itself.

Name the reported apparent KD of K4 kissing-loop reporter value associated with the sequence GCCUAGCAGGGAAGGAGCGGCAUAGGCAUAGAUAAUAUGCAGUUAGUGAUGUUAACACUAUGCCAGGUAGGUCGCCCUGCUAGGC [KL-SSArg B8]
120

Entry to check: AUUAACCUUUUAGCUAUAUUUUUAUGUGAUACCAGACAUGGCAUAGUCCCUUGGCAGCACAUUAUAUUUACGAGUGAUGUUCGAA [JR_SSTheophyA_Sub026]
271

Moving on to the next sequence: UGUCAUUGGUCGGCCGCCACUUCAAGGUCAAAGACCAAAGAGUGAUGUUCUUAGACGAAAGUCAGAAGGACCGGGACCGAUGACU [TrypBS 9 #SwitchBubble #K4Middle]
245

What would you report for CUAAUCGCUCAUGAUACCAGCUAGUGAUGUUAGCCCGUCAAGCUGAGGGUUCAUCCACCCAGCCCUUGGCAGCAUUCUCGGUCAG [theeternabot_exclusion_KL_Theo_B_8] ?
449

Now give it for UGUAUGUGAUUUGAUACCAGACCAGCUGGAGGAAUCUGAGUGAUGUUCAGGUAGGUUUGGGUCCCUUGGCAGCAAAUCGCAUACU [KL-SSTheoB17] too.
192

Item: GCCUUAUAUCCAGCUACAGCUCUUUUUGGUCGAGGACCGGUACGGCCGCCACUCGAAUGAUAGUGAUGUUAUCGUUUUGUACUAA [JR_Nu_ExcTryptoA_Sub024]
101

====

Tested on: MS2 coat protein
assay.remarks: apparent KD of MS2 coat protein; designed switch direction (-1 OFF switch, 1 ON switch): -1; higher = weaker reporter binding
details: input ligand: microRNA oligo, concentration not stated
quantity: apparent KD of MS2 coat protein (nM)
Give the value in nM but do not write nM after it.

Quick one: apparent KD of MS2 coat protein for ACAUGUAAUGUAGGAUAUUUUACACAUGAGGAUCACCCAUGUGACCAGAGGCUUUGCUAUGAGUAAAAGAAGGGUAUGUACAUG [Ex NG2 #59] (Eterna round: R96, puzzle: Exclusion NG 2) ?
51.5

Proceed to GCACGGAAUGUAGGAUAUUAGUGCGAUUAGCACUGAGAAGGACAUGAGGAUCACCCAUGUUCCUCAAUAAUAAACCUUCCGUGC [Eli exng1 - 044] (Eterna round: R96, puzzle: Exclusion NG 1)
10.2

What do you get for AACAGUACAGGAUAUACAUGAGGAUCACCCAUGUGACAAUUAAGUGGCGUACCACAAAGUAGAAGGGUACUGGA [Ruby 86] (Eterna round: R96, puzzle: Exclusion 3) ?
24.3

Proceed to CAUGAUUGACGAGGAUAUUGUACUACAUCACGACGAGAAGGCGUCUGUCACAUGAGGAUCACCCAUGUGAGACUGGUGAAUGAG [Ex NG1 #80] (Eterna round: R96, puzzle: Exclusion NG 1)
16.7

Param item: UUCGUGCUGCUUUGCUGUACGAGUACAUGAGGAUCACCCAUGUAGGAUAUGGUACGCUUUGCGUGCUAGAAGGAUAUGUGUUGC [salish99_ExNG3_r04_506] (Eterna round: R96, puzzle: Exclusion NG 3)
16.9

Would you kindly repeat that for AGUACUAUCACGAAAGUGAUAGUACAAUGAGCUUUUGAAACAUGAGGAUCACCCAUGUCCUCGUAAGCUCGUCUUAA [Mat - Sensor v2 - var 2 - Mod - D179] (Eterna round: R96, puzzle: Sensor v2, turn-off variant 2) ?
438

Next entry: AUGUACCGGUGAGGAUAUUUUUAAUAGAGCUUUAUGAUAUACAUGAGGAUCACCCAUGUUACGUUAAAGAAGGCAUCGGAUUAA [Mat - Exclusion NG 2 - Mod of JL - D96] (Eterna round: R96, puzzle: Exclusion NG 2)
14

Now try GAUUGAGAGCAGGAUAUCUUAGAAAUGUAUGAAAGAGAAGGGCUCACAUGAGGAUCACCCAUGUGGUCCUAGAU [JL Dibiri mod 17] (Eterna round: R96, puzzle: Exclusion 6) .
17.9

Input UUAAGGGACUGAGGAUAUACAUGAAUUAUUUUUGUAGAAGGCAGAUUGUUAGUUUAUUCACUAUACAUGAGGAUCACCCAUGUU [JR_ExcNG1_Sub020] (Eterna round: R96, puzzle: Exclusion NG 1)
18.3

====

Tested on: MS2 coat protein
assay.remarks: apparent KD of MS2 coat protein; designed switch direction (-1 OFF switch, 1 ON switch): 1; higher = weaker reporter binding
details: input ligand: microRNA oligo, concentration not stated
What apparent KD of MS2 coat protein was measured for each of the following?

Recorded apparent KD of MS2 coat protein for AUUGCUGUCACAGGAUAUCAUGCGGAAAUCGCGUGAGAAGGGUGGACUCUGUCAUUCACGGAGGACAUGAGGAUCACCCAUGUG [SS NG10LRO19] (Eterna round: R96, puzzle: Same State NG 1) , please?
8.78 nM

Check GUACAGAUUAUAGGAUAUCACGUCGAUUAGACGUGAGAAGGAUAAUCCCACAUGAAUAUUAAUACAUGAGGAUCACCCAUGUAC [SSNG1/18-B2] (Eterna round: R96, puzzle: Same State NG 1) too.
22 nM

# iterate: AUUGCUUACGCAGGAUAUGAUGUGGAAACUGCGUCAGAAGGGUGAACAGUAUCGUUGCAAGAGGACAUGAGGAUCACCCAUGUC [SameState NG1 #98] (Eterna round: R96, puzzle: Same State NG 1)
20.6 nM

====

So I've got a bunch of sequences here, and I need their apparent KD of MS2 coat protein values.
Tested on: MS2 coat protein
assay.remarks: apparent KD of MS2 coat protein; designed switch direction (-1 OFF switch, 1 ON switch): 1; higher = weaker reporter binding
details: input ligand: FMN 200 uM
Report the figure in µM without appending any unit label.

Any idea what apparent KD of MS2 coat protein was measured for GGUCGGACUCAACAUGAGGAUCACCCAUGUGCGGAAACGCCAUAGGAUAUCUGUCCGAAAAGGUCAGAGAAGGGUGAACCGACC [Fiskers NG3ss - 66] (Eterna round: R96, puzzle: Same State NG 3) ?
0.435

Next sequence up: GACCGCGAGGAAGGAUAUGGAGCCUUAUUGGCUCCAGAAGGUCCAUAAAGGACAUGAGGAUCACCCAUGUGGUGUGAAGCGGUC [Fiskers NG1ss - 18] (Eterna round: R96, puzzle: Same State NG 1)
0.0655
